Values from patent US20220324970A1

Measured pKd, listed per entry.
Tested system: T1, human pIgR extracellular domain (ECD) (human, UniProt P01833 19-638)
T1 construct: also called hpIgR ECD
T1 sequence (P01833 other isoform, or with tags, fused parts or gaps): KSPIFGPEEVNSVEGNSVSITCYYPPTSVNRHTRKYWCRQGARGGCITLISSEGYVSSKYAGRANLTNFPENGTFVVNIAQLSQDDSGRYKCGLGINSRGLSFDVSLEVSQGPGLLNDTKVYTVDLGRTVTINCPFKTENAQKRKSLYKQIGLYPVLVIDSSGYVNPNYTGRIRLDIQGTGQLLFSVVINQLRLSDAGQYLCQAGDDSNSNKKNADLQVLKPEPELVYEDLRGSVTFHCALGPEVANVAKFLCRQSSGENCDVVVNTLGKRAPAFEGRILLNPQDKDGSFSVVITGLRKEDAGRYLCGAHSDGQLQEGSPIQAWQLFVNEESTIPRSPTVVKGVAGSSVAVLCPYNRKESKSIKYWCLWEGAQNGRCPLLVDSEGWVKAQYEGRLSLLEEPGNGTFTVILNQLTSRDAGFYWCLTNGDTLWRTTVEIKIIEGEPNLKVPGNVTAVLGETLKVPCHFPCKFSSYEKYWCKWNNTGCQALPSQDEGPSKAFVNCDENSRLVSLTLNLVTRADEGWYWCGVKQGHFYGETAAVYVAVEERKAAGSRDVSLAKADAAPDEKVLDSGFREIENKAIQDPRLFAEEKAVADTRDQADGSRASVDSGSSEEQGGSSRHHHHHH
Run description: BLI (Octet RED384), 1:1 fit, 25 C, PBS
pKd: −log10 of the molar value.

- Binder: "VHH5-linker-mono-Fc protein (Fc fusion, made in CHO cells; also called VHH5-mono-Fc; hpIgR_175) QVQLVESGGGLVQAGGSLRLSCAASGRTFSSYAMGWFRQAPGKEREFVAAITWNGGTTYYADSVKGRFTISRDNAKNTVYLQMNSLKPEDTAVYYCAADPFNQGYWGQGTQVTVSSEPKTPKPQPQPQLQPQPNPTTESKSPKSPAPELLGGPSVFLFPPKPKDTLMISRTPEVTCVVVDVSHEDPEVKFNWYVDGVEVHNAKTKPREEQYNSTYRVVSVLTVLHQDWLNGKEYKCKVSNKALPAPIEKTISKAKGQPREPQVYTKPPSREEMTKNQVSLSCLVKGFYPSDIAVEWESNGQPENNYKTTVPVLDSDGSFRLASYLTVDKSRWQQGNVFSCSVMHEALHNHYTQKSLSLSPGK"
  pKd: 8.00
- Binder: "VHH11-linker-mono-Fc protein (Fc fusion, made in CHO cells; also called VHH11-mono-Fc; hpIgR_250) EVQVVESGGGLVQAGGSLRLSCAASGRTFTTYRMGWFRQAPGKEREFVAAIRWSGGRTLYADSVKGRFTISRDNAKNTAYLQMNNLRPEDTAVYYCAADLAEYSGTYSSPADSPAGYDYWGQGTQVTVSSEPKTPKPQPQPQLQPQPNPTTESKSPKSPAPELLGGPSVFLFPPKPKDTLMISRTPEVTCVVVDVSHEDPEVKFNWYVDGVEVHNAKTKPREEQYNSTYRVVSVLTVLHQDWLNGKEYKCKVSNKALPAPIEKTISKAKGQPREPQVYTKPPSREEMTKNQVSLSCLVKGFYPSDIAVEWESNGQPENNYKTTVPVLDSDGSFRLASYLTVDKSRWQQGNVFSCSVMHEALHNHYTQKSLSLSPGK"
  pKd: 7.55
- Binder: "VHH10-linker-mono-Fc protein (Fc fusion, made in CHO cells; also called VHH10-mono-Fc; hpIgR_225) EVQVVESGGGLVQAGGSLRLSCAASGFTFTRYAMGWFRQAPGKERSFVAAISWSGSSAGYGDSVKGRFTISRDNAKNTLYLQMNSLKPEDTAVYYCAADPFNQGYWGQGTQVTVSSEPKTPKPQPQPQLQPQPNPTTESKSPKSPAPELLGGPSVFLFPPKPKDTLMISRTPEVTCVVVDVSHEDPEVKFNWYVDGVEVHNAKTKPREEQYNSTYRVVSVLTVLHQDWLNGKEYKCKVSNKALPAPIEKTISKAKGQPREPQVYTKPPSREEMTKNQVSLSCLVKGFYPSDIAVEWESNGQPENNYKTTVPVLDSDGSFRLASYLTVDKSRWQQGNVFSCSVMHEALHNHYTQKSLSLSPGK"
  pKd: 6.59
- Binder: "VHH12-linker-mono-Fc protein (Fc fusion, made in CHO cells; also called VHH12-mono-Fc; hpIgR_266) QVQLVETGGGLVQAGDSLRLSCAASGRTLSFNTYAMGWFRQAPGKEREFVASITWNGGSTSYADSVKGRFTITRDNAKNTATLRMNSLQPDDTAVYYCAAARYYVSGTYFPANYWGQGTQVTVSSEPKTPKPQPQPQLQPQPNPTTESKSPKSPAPELLGGPSVFLFPPKPKDTLMISRTPEVTCVVVDVSHEDPEVKFNWYVDGVEVHNAKTKPREEQYNSTYRVVSVLTVLHQDWLNGKEYKCKVSNKALPAPIEKTISKAKGQPREPQVYTKPPSREEMTKNQVSLSCLVKGFYPSDIAVEWESNGQPENNYKTTVPVLDSDGSFRLASYLTVDKSRWQQGNVFSCSVMHEALHNHYTQKSLSLSPGK"
  pKd: 7.36
- Binder: "VHH9-linker-mono-Fc protein (Fc fusion, made in CHO cells; also called VHH9-mono-Fc; hpIgR_221) QVQLVESGGGLVQAGGSLRLSCAVSGRTFSTYRMGWFRQAPGKERSFVAAISWSGGSTTYADPVKGRFTISRDNAKNTVYLRMNSLKPEDTAVYYCNDQRGYWGQGTLVTVSSEPKTPKPQPQPQLQPQPNPTTESKSPKSPAPELLGGPSVFLFPPKPKDTLMISRTPEVTCVVVDVSHEDPEVKFNWYVDGVEVHNAKTKPREEQYNSTYRVVSVLTVLHQDWLNGKEYKCKVSNKALPAPIEKTISKAKGQPREPQVYTKPPSREEMTKNQVSLSCLVKGFYPSDIAVEWESNGQPENNYKTTVPVLDSDGSFRLASYLTVDKSRWQQGNVFSCSVMHEALHNHYTQKSLSLSPGK"
  pKd: 7.71
